- Tested on: HTT mRNA
- TEST NAME: RT-qPCR splicing assay, HTT canonical junction (CJ) and alternative junction (AJ) mRNA
- Type: cell-based, human
- STATED CONDITIONS: Homo sapiens; Table 5 panel; canonical junction qPCR; compound concentration having 50% response in CJ decrease; read-out: HTT IC50 (decrease in CJ mRNA levels)
READOUT LABEL: IC50

Some solved cases for reference:
Record CNc1cc(-c2cc(C)c3nc(C)cn3n2)cc2ccn([C@H]3CCNC3)c(=O)c12 [Compound 647] , field IC50: 1000 to 10000 nM

So, CN1CCN(c2ccc3nc(-c4ccc5nn(C)cc5c4)[nH]c(=O)c3c2)CC1 [Compound 108] ? Its IC50 was > 10000 nM

Cc1cn2nc(-c3cc(F)c4c(=O)n(C5CCNCC5)ccc4c3)cc(C)c2n1 [Compound 322] has a reported IC50 of < 100 nM

Input Cn1cc2cc(-c3ncc4c(=O)n(C5CCNC5)ccc4n3)c(O)c(F)c2n1 (stereo not drawn) [Compound 1223] . Output IC50: 1000 to 10000 nM

Quick note, IC50 for Cc1cn2nc(-c3ccc4c(=O)n(C5CCNCC5)ccc4c3)cc(CC#N)c2n1 [Compound 520] landed at 100 to 1000 nM

Next:
Quick note, IC50 for Cc1cn2nc(-c3cc(O)c4c(=O)n(C5CCNC5)ccc4c3)cc(C)c2n1 (stereo not drawn) [Compound 432] landed at 1000 to 10000 nM

What the record says about Cc1cn2nc(-c3cc(O)c4c(=O)n(C5CCN(CCF)CC5)ncc4c3)cc(C)c2n1 [Compound 553] : IC50 is < 100 nM

Record Cc1cn2cc(-c3cc(F)c4c(=O)n(C5CCNC6(CC6)C5)ccc4c3)cc(C)c2n1 (stereo not drawn) [Compound 416] , field IC50: 100 to 1000 nM

IC50 recorded for this compound, Cc1cn2nc(-c3ccc4c(=O)n(C5CCNCC5)ccc4c3)cc(CC(=O)O)c2n1 [Compound 531] , is < 100 nM

Per the record, Cc1cn2nc(-c3ccc4c(=O)n(C5CCNCC5)ccc4c3)cc(C(=O)O)c2n1 [Compound 516] has IC50 of 1000 to 10000 nM

Sample Cc1cn2cc(-c3cc(F)c4c(=O)n([C@H]5CCN[C@H](C)C5)cnc4c3)cc(F)c2n1 [Compound 346] ; IC50 observed: 100 to 1000 nM

IC50 reading for Cc1nc2c(F)cc(-c3ccc4c(=O)n(C5CCNCC5)cnc4c3)cc2o1 [Compound 245] : 100 to 1000 nM

According to the records, this compound Cn1cc2cc(-c3ccc4c(c3)CCN(C3CCNCC3)C4=O)cc(F)c2n1 [Compound 225] displays IC50 of > 10000 nM

Lab book: IC50 of Cc1cn2nc(-c3ccc4c(=O)n(C5CCNCC5)ncc4c3)nc2c(C)n1 [Compound 259] noted as 100 to 1000 nM

Sure, the documented IC50 for Cc1cn2cc(-c3ncc4c(=O)n(C5CCNC5)ccc4n3)cc(C#N)c2n1 (stereo not drawn) [Compound 1221] is 100 to 1000 nM

// IC50 value for Cn1cc2c(n1)CCN(c1cc(F)c3c(=O)n(C4CCNCC4)cnc3c1)C2 [Compound 365] : > 10000 nM

For reference, reported IC50 for Cc1cn2nc(-c3ccc4c(=O)n([C@H]5CCN[C@H](C)C5)ncc4c3)cc(C)c2n1 [Compound 273] stands at < 100 nM

In plain terms, Cc1cc(-c2ccc3c(=O)n([C@@H]4CCNC[C@H]4F)ncc3c2)cc2cn(C)nc12 [Compound 378] has a documented IC50 of 1000 to 10000 nM

Value of IC50 reported for the compound CNc1cc(-c2cc(C#N)c3nc(C)cn3c2)cc2ncn(C3CCNCC3)c(=O)c12 [Compound 363] is > 10000 nM

The compound identified as Cc1cn2nc(-c3ccc4c(=O)n(C5CCNCC5)cnc4c3)nc2c(C)n1 [Compound 287] registered its IC50 at 100 to 1000 nM
